Sourced from patent US8633245B2

Biological target: recombinant human PAI-1 (Homo sapiens, UniProt P05121)
Construct: purchased Molecular Innovations, Inc
Sequence (P05121 24-402): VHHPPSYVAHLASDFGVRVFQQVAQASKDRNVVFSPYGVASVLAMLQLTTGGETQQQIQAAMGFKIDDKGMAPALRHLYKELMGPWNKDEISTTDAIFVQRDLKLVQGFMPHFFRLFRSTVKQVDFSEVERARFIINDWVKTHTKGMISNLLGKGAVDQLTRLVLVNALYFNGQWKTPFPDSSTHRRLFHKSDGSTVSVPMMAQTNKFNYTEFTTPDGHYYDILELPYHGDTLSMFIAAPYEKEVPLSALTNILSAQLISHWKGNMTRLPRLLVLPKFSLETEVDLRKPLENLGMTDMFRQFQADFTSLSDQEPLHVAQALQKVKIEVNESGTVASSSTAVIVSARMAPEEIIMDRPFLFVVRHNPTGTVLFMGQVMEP
Assay: Test Example 1: human PAI-1 inhibitory activity (tPA fluorogenic substrate, pH 7.5 Tris buffer)
Assay type: biochemical
Details: Compound Concentration 5 μM; Tris buffer
measured-parameter: Inhibition Rate of PAI-1 Activity (%)
Give the value, in units of %, as a plain number.

// below: answered compounds
CCCCCCOc1ccc(-c2ccc(OC(F)(F)F)cc2)cc1N(CCCCc1ccccc1)C(=O)C(=O)O
93
CC(C)(C)c1ccc(CN(C(=O)C(=O)O)c2ccccc2-c2ccc(OC(F)(F)F)cc2)cc1
17
CC(C)(C)Oc1ccc(N(Cc2ccc(C(C)(C)C)cc2)C(=O)C(=O)O)cc1-c1ccc(OC(F)(F)F)cc1
83
CC(C)Oc1ccc(N(Cc2ccc(C(C)(C)C)cc2)C(=O)C(=O)O)c(-c2ccc(OC(F)(F)F)cc2)c1
81
O=C(O)C(=O)N(CCCCCc1ccccc1)c1ccc(-c2ccc(OC(F)(F)F)cc2)cc1
45
CC(C)(C)c1ccc(CN(C(=O)C(=O)O)c2ccc(-c3ccc(OC(F)(F)F)cc3)cc2C(F)(F)F)cc1
33

Ask: Short answer please: Inhibition Rate of PAI-1 Activity (%), recombinant human PAI-1 (Homo sapiens, UniProt P05121), entry CC(C)(C)c1ccc(COc2ccc(-c3ccc(OC(F)(F)F)cc3)cc2COCC(=O)O)cc1
Reply: 48

Ask: Consider next the compound CC(C)(C)c1ccc(CN(C(=O)C(=O)O)c2ccc(-c3cccc(OC(F)(F)F)c3)cc2)cc1 in the same way.
Reply: 64

====

# Inhibition Rate of PAI-1 Activity (%) listing for each entry below
Biological target: recombinant human PAI-1 (Homo sapiens)
Construct: purchased Molecular Innovations, Inc
Test: Test Example 2: human PAI-1 inhibitory activity (tPA fluorogenic substrate, pH 7.4 HEPES buffer)
Type: biochemical
Conditions: human PAI-1; compound concentration 1 μM
A number alone suffices; assume %.

CC(C)(C)c1ccc(COc2ccc(NS(=O)(=O)c3ccc(OC(F)(F)F)cc3)cc2CCC(=O)O)cc1 [Compound 415]
41

Okay, next one:
Ask: Given the entry CCCCCN(C(=O)C(=O)O)c1cc(-c2ccc(OC(F)(F)F)cc2)ccc1OCCCOc1ccccc1 [Compound 657] , report its measured Inhibition Rate of PAI-1 Activity (%).
Reply: 99

====

Target: recombinant human PAI-1 (Homo sapiens, UniProt P05121)
Construct: purchased Molecular Innovations, Inc
Experiment: Test Example 2: human PAI-1 inhibitory activity (tPA fluorogenic substrate, pH 7.4 HEPES buffer)
Type: biochemical
Details: human PAI-1; compound concentration 0.3 μM
Experimental: 0.1 M HEPES, 0.1 M NaCl. 1 mM EDTA. 0.1% Polyethylene glycol 8,000 (Hampton Research Corporation), 2 mM Dimethyldecylphoshine oxide [Apo-10] (Fluka Corporation)
Reported values of Inhibition Rate of PAI-1 Activity (%) for individual entries
Dear colleague, please return just the value in %, with no unit written.

Ask: # lookup: Inhibition Rate of PAI-1 Activity (%) of CCCCN(CC(=O)O)c1cc(-c2ccc(OC(F)(F)F)cc2)ccc1Oc1ccc(C(C)(C)C)cc1
Reply: 36

Ask: Can you handle O=C(O)CCc1ccc(-c2ccc(OC(F)(F)F)cc2)cc1OCCCSc1ccccc1 next?
Reply: 9

Ask: Same question, Cc1cc(C)cc(-c2ccc(/C=C/C(=O)O)c(Oc3ccc(C(C)(C)C)cc3)c2)c1 this time
Reply: 9

Ask: What do we get for O=C(O)C(=O)N(CCCCc1ccccc1)c1cc(-c2ccc(OC(F)(F)F)cc2)ccc1OCCCC1CCCCC1 ?
Reply: 64

====

The following molecules are listed with their measured Inhibition Rate of PAI-1 Activity (%) values.
Target: recombinant human PAI-1 (Homo sapiens, UniProt P05121)
Construct: purchased Molecular Innovations, Inc
Assay: Test Example 1: human PAI-1 inhibitory activity (tPA fluorogenic substrate, pH 7.5 Tris buffer)
Format: biochemical
Conditions: Compound Concentration 10 μM; Tris buffer
Answer in %, number only, no unit symbol.

Consider the following illustrative entries.
COc1ccc(-c2ccc(OCc3ccc(C(C)(C)C)cc3)c(/C=C/C(=O)O)c2)cc1 [Compound 37]
47
CC(C)(C)c1ccc(CN(C(=O)C(=O)O)c2cc(-c3ccccc3)cc(C(F)(F)F)c2)cc1 [Compound 140]
31
CC(C)(C)c1ccc(CN(C(=O)C(=O)O)c2ccc(Nc3ccc(OC(F)(F)F)cc3)cc2)cc1 [Compound 626]
77
CC(C)(C)c1ccc(COc2ccc(-c3ccc(OC(F)(F)F)cc3)cc2NC(=O)C(=O)[O-])cc1.[Na+] [Compound 6]
94
CC(C)(C)c1ccc(COc2ccc(-c3cccc(OC(F)(F)F)c3)cc2/C=C/C(=O)O)cc1 [Compound 63]
72

Ask: // lookup Inhibition Rate of PAI-1 Activity (%) for CC(C)c1ccc(Oc2ccc(/C=C\C(=O)O)c(Oc3ccc(C(C)C)cc3)c2)cc1 [Compound 74]
Reply: 53

Ask: Param item: CCCCCCOc1ccc(-c2ccc(OC(F)(F)F)cc2)cc1N(CCCCc1ccccc1)C(=O)C(=O)O [Compound 245]
Reply: 97

Ask: Subsequent entry: O=C(O)CCc1cc(-c2ccc(OC(F)(F)F)cc2)ccc1Oc1ccc(C(=O)O)cc1 [Compound 14]
Reply: 3

====

Target: recombinant human PAI-1 (Homo sapiens, UniProt P05121)
Construct: purchased Molecular Innovations, Inc
Test: Test Example 2: human PAI-1 inhibitory activity (tPA fluorogenic substrate, pH 7.4 HEPES buffer)
Assay type: biochemical
Conditions: human PAI-1; compound concentration 1 μM
measured-parameter: Inhibition Rate of PAI-1 Activity (%)
Please reply with the bare figure in % and do not write the unit itself.

Use the examples below as a reference point.
O=C(O)CCc1ccc(-c2ccc(OC(F)(F)F)cc2)cc1Oc1ccc(OC(F)(F)F)cc1
70
O=C(O)COc1cc(Oc2ccc(OC(F)(F)F)cc2)ccc1OCCCCc1ccccc1
15
O=C(O)C(=O)N(CCCCc1ccccc1)c1cc(-c2ccc(OC(F)(F)F)cc2)ccc1OCCCC1CCCCC1
95
CCCCC1CCC(Oc2ccc(-c3ccc(OC(F)(F)F)cc3)cc2N(CCCCc2ccccc2)C(=O)C(=O)O)CC1 (centres unmarked)
80
Cc1ccc(-c2ccc(OCC(=O)O)c(Oc3ccc(C(C)(C)C)cc3)c2)cc1
11

Ask: Which value of Inhibition Rate of PAI-1 Activity (%) has been reported for CC(C)(C)c1ccc(Sc2cc(-c3ccc(OC(F)(F)F)cc3)ccc2CC(=O)O)cc1 in the records?
Reply: 93

====

Target: recombinant human PAI-1 (Homo sapiens, UniProt P05121)
Construct: purchased Molecular Innovations, Inc
Assay: Test Example 2: human PAI-1 inhibitory activity (tPA fluorogenic substrate, pH 7.4 HEPES buffer)
Type: biochemical
Conditions: human PAI-1; compound concentration 3 μM
# maps each entry to its Inhibition Rate of PAI-1 Activity (%)

CC(C)(C)c1ccc(Oc2cc(-c3ccc(OC(F)(F)F)cc3)ccc2CCCC(=O)O)cc1
>99%
CC(C)(C)c1ccc(COc2ccc(N3CCN(c4ccc(OC(F)(F)F)cc4)CC3)cc2/C=C/C(=O)O)cc1
95%
Cc1cc(C)cc(-c2ccc(/C=C/C(=O)O)c(Oc3ccc(C(C)(C)C)cc3)c2)c1
>99%

Let us examine a further case.
Ask: Name the reported Inhibition Rate of PAI-1 Activity (%) value associated with the molecule CC(C)(C)c1ccc(C(=O)c2cc(-c3ccc(OC(F)(F)F)cc3)ccc2OCC(=O)O)cc1
Reply: >99%

====

Target: recombinant human PAI-1 (Homo sapiens)
Construct: purchased Molecular Innovations, Inc
Experiment: Test Example 1: human PAI-1 inhibitory activity (tPA fluorogenic substrate, pH 7.5 Tris buffer)
Assay type: biochemical
Conditions: Compound Concentration 10 μM; Tris buffer
Outcome label depends on Inhibition Rate of PAI-1 Activity (%) relative to 70%: at/above gives Yes, below gives No.

A selection of reference data follows.
CCCCc1ccc(COc2ccc(-c3ccc(C(C)(C)C)cc3)cc2CCC(=O)O)cc1
Yes
Cc1cc(-c2ccc(OC(F)(F)F)cc2)cc(CCC(=O)O)c1OCc1ccc(C(C)(C)C)cc1
No
O=C(O)C(=O)N(Cc1ccc(OC(F)(F)F)cc1)c1ccc(-c2ccccc2)cc1
No
CC(C)(C)c1ccc(CN(C(=O)C(=O)O)c2ccccc2Sc2ccc(OC(F)(F)F)cc2)cc1
Yes
CC(C)(C)c1ccc(N(C(=O)C(=O)O)c2cccc(Oc3ccc(OC(F)(F)F)cc3)c2)cc1
Yes

Ask: Decide: is the reported value of Inhibition Rate of PAI-1 Activity (%) for Cc1ccc(N(Cc2ccc(C(C)(C)C)cc2)C(=O)C(=O)O)cc1OCc1ccc(OC(F)(F)F)cc1 equal to or greater than 70%?
Reply: Yes

Ask: Okay, and CC(C)(C)c1ccc(COc2ccc(-c3ccc(OC(F)(F)F)cc3)cc2COCC(=O)O)cc1 ?
Reply: Yes
